Values from patent US8791266B2

- measured.on: Human Thyroid Hormone Receptor β1 (TRβ1) (Homo sapiens)
- Sequence (P10828 whole entry): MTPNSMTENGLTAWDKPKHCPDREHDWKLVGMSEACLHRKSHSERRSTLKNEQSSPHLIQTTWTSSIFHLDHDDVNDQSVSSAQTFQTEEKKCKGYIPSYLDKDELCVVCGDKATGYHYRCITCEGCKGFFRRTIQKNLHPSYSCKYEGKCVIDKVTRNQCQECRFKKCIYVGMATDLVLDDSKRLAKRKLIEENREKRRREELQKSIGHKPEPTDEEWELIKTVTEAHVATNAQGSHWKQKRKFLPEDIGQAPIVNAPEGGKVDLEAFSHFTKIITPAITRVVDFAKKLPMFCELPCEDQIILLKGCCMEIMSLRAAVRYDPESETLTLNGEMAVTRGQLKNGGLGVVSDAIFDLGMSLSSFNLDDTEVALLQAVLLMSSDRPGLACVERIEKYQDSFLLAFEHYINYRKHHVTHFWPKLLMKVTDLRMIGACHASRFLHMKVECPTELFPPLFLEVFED
- assay.summary: Transcription activation test of human thyroid hormone receptor β1 (luciferase reporter in 293T cells)
- condition.context: EC50 of transcription activation on TRβ1, 293T cells, luciferase activity after 24 hr; read-out: TRβ
pEC50: −log10 of the molar value.
measured.parameter: pEC50

> print(dat)
                                   compound                               measured.on  endpoint.result
1  Cc1cc(NC(=O)CC(=O)O)c(Cl)c(C)c1Cc1ccc(O)c(C2CCCCC2)n1 [Example 54]  Human Thyroid Hormone Receptor β1 (TRβ1) (Homo sapiens)             8.22

1. Cc1cc(OCc2noc(=O)[nH]2)c(F)c(C)c1Cc1ccc(O)c(-c2ccc(F)c(F)c2F)n1 [Example 191]
2. Cc1cc(OC(C)C(=O)O)cc(C)c1Cc1ccc(O)c(C2CCCCC2)n1 (stereo not drawn) [Example 14]
[Q] Field: entry with larger pEC50 (options 1 / 2 ). Write down the label attached to your selection.
[A] 1
(1: 8.22, 2: 8.00)

---

- measured.on: Human Thyroid Hormone Receptor α1 (TRα1) (Homo sapiens)
- Construct: expressed in transfected cells; host or cells: 293T cells
- Sequence (P10827 1-410 isoform P10827-2): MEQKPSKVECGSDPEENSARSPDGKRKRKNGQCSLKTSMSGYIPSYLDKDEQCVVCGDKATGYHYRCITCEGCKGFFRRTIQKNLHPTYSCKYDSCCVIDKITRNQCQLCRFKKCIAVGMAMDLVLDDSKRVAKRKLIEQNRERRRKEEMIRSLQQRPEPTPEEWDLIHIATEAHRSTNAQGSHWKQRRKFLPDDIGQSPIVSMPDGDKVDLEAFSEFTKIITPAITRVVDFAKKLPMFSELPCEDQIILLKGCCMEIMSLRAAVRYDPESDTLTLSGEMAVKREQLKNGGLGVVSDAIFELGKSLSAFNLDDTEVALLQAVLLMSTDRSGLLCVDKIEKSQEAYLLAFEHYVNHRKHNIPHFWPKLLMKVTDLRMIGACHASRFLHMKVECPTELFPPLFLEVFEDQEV
- assay.summary: Transcription activation test of human thyroid hormone receptor α1 (luciferase reporter in 293T cells)
- Format: cell-based
- condition.context: ratio TRα/TRβ of the transcription activation EC50 values
- Source text: Transcription Activation Test of Human Thyroid Hormone Receptors α1 (TRα1) and β1 (TRβ1) […]
measured.parameter: selectivity (TRα/TRβ)

The following compounds have reported results that may help.
> print(dat)
                                   compound    endpoint.result
1  Cc1cc(OCC(=O)O)cc(C)c1Cc1ccc(O)c(C2CCCCC2)n1  B (2<(TRα/TRβ)<5)
2  Cc1cc(/C=C/C(=O)O)c(C)c(C)c1Cc1ccc(O)c(C2CCCCC2)n1    C (2>(TRα/TRβ))
3  Cc1cc(OC(C)C(=O)O)c(C)c(C)c1Cc1ccc(O)c(C2CCCCC2)n1 (stereo not drawn)  B (2<(TRα/TRβ)<5)
4  Cc1cc(-n2nc(C#N)c(=O)[nH]c2=O)cc(C)c1Cc1ccc(O)c(-c2ccccc2)n1    A (5<(TRα/TRβ))
5  Cc1cc(OCc2noc(=O)[nH]2)c(C)c(C)c1Cc1ccc(O)c(C2CCCO2)n1 (stereo not drawn)  B (2<(TRα/TRβ)<5)

[Q] Look up selectivity (TRα/TRβ) of "Cc1cc(OCC(=O)O)c(C)c(C)c1Cc1cc(F)c(O)c(C2CCCCC2)n1" and report it.
[A] A (5<(TRα/TRβ))

[Q] Determine from records and report selectivity (TRα/TRβ) for "Cc1cc(OCc2noc(=O)[nH]2)c(C)c(C)c1Oc1ccc(O)c(C(C)C)n1"
[A] C (2>(TRα/TRβ))

[Q] Please look at this compound and report its selectivity (TRα/TRβ): "Cc1cc(OC2(C(=O)O)CC2)cc(C)c1Cc1ccc(O)c(C2CCCCC2)n1"
[A] C (2>(TRα/TRβ))

[Q] Quote selectivity (TRα/TRβ) reported for "Cc1cc(NC(=O)CC(=O)O)cc(C)c1Cc1ccc(O)c(-c2ccccc2)n1" please.
[A] A (5<(TRα/TRβ))

[Q] Using the record for Cc1cc(OCc2noc(=O)[nH]2)c(C)c(C)c1Cc1ccc(O)c(C2CCCCO2)n1 (stereo not drawn) , state its measured selectivity (TRα/TRβ).
[A] B (2<(TRα/TRβ)<5)

[Q] Determine its reported selectivity (TRα/TRβ): "Cc1cc(OCC(=O)O)cc(C)c1Cc1ccc(O)c(-c2ccc3ccccc3c2)n1"
[A] A (5<(TRα/TRβ))

[Q] Given "Cc1cc(NC(=O)CC(=O)O)cc(C)c1Cc1ccc(O)c(C2CCCCCC2)n1" , respond with its selectivity (TRα/TRβ).
[A] A (5<(TRα/TRβ))

[Q] Write down selectivity (TRα/TRβ) measured for item "Cc1cc(NC(=O)CC(=O)O)cc(C)c1Cc1ccc(O)c(C(C)C)n1"
[A] B (2<(TRα/TRβ)<5)

[Q] Supply selectivity (TRα/TRβ) value. Item: "Cc1cc(NCC(=O)O)c(C)c(C)c1Cc1ccc(O)c(C2CCCCC2)n1"
[A] B (2<(TRα/TRβ)<5)

[Q] Give a short answer stating reported selectivity (TRα/TRβ) for "Cc1cc(OCC(=O)O)c(C)c(C)c1Cc1ccc(O)c(-c2cccc(F)c2)n1" .
[A] A (5<(TRα/TRβ))
